Values compiled from patent US20220281865A1.

# Test protocol: Cytotoxicity determination in HepG2.2.15 cells (CCK-8 cell viability)
# Format: cell-based
# Assay context: human, 6 days treatment, CCK-8 assay
CC50 at 6 days strictly less than 40 µM = y. Otherwise n.

Worked cases, answers included:
1) CCOC(=O)C1=C(CN2CC(F)(F)[C@H]3CCN(C(=O)C(C)(C)C(=O)O)C[C@H]32)NC(c2nccs2)=N[C@H]1c1cccc(F)c1C (single isomer, unassigned) [Compound I-3] ... y
2) CCOC(=O)C1=C(CN2CC(F)(F)[C@H]3CCN(CC(C)(C)C(=O)O)C(=O)[C@H]32)NC(c2nccs2)=N[C@H]1c1cccc(F)c1C (single isomer, unassigned) [Compound I-1] ... y
3) CCOC(=O)C1=C(CN2CC(F)(F)[C@H]3C(=O)N(CC(C)(C)C(=O)O)CC[C@H]32)NC(c2nccs2)=N[C@H]1c1cccc(F)c1C (single isomer, unassigned) [Compound I-5] ... n
4) CCOC(=O)C1=C(CN2CC(F)(F)[C@H]3CN(CC(C)(C)C(=O)O)CC[C@H]32)NC(c2nccs2)=N[C@H]1c1cccc(F)c1C (single isomer, unassigned) [Compound I-6] ... n
5) CCOC(=O)C1=C(CN2CC(F)(F)[C@H]3CN(C(=O)C(C)(C)C(=O)O)CC[C@H]32)NC(c2nccs2)=N[C@H]1c1cccc(F)c1C [Compound I-4] ... y

Here's the next entry for you.
Task: Please determine if CCOC(=O)C1=C(CN2CC(F)(F)[C@H]3CC(=O)N(CC(C)(C)C(=O)O)C[C@H]32)NC(c2nccs2)=N[C@H]1c1cccc(F)c1C (single isomer, unassigned) [Compound I-2] is below 40 µM in terms of CC50 at 6 days.
Result: n
